B1: HDV Ribozyme (parent)
chain: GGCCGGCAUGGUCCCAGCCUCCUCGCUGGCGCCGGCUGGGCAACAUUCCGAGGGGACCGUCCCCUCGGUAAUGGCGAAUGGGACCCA

Variants of: B1
Assay: self-cleavage, relative activity (ratio to wild type); higher = more cleavage; co-transcriptional
Output schema: class label derived from self-cleavage. Mapping: label 0 = under 0.09, label 1 = from 0.09 up to 0.7, label 2 = 0.7 and over

Enquiry: Class (by measured self-cleavage) for GGCCGGCAUGGUCCCGGCCUCCUCGCUGGCGCCGGCUGGGCAACAUUCCGAGGGGACCGUCCCCUCGGUGAUGGCGAAUGGGACCCA [A16G A70G]
Return: label 2

Enquiry: Entry GGCCGGCAUGGUCCCAGCCUCCUCGCUGGCGCCGGCUGGGCAAGAUUCCGAGGGGACCGUCCCAUCGGUAAUGGCGAAUGGGACCCA [C44G C64A] belongs to which category?
Return: label 2

Enquiry: Each variant maps to one class by self-cleavage. Which class for GGCCGGCAUGGUCCCAGCCUCCUCGCUGGCGCCGGCUGGGCAACAUGCCGAGGGGAACGUCCCCUCGGUAAUGGCGAAUGGGACCCA [U47G C57A] ?
Return: label 2

Enquiry: Which class does GGCCGGCAUGGUCCCAACCGCCUCGCUGGCGCCGGCUGGGCAACAUUCCGAGGGGACCGUCCCCUCGGUAAUGGCGAAUGGGACCCA [G17A U20G] fall in?
Return: label 1

Enquiry: Hi there! Could you help me figure out the category for GGCCGGCAUGGUCCCAGCAUCCUCGCUGGCGCCGGCUGGGCAACAUUACGAGGGGACCGUCCCCUCGGUAAUGGCGAAUGGGACCCA [C19A C48A] please?
Return: label 1

Enquiry: Just checking, what class would you give GGCCGGCAUGGUUCCAGCCUCCUCGCUGGCGCCGACUGGGCAACAUUCCGAGGGGACCGUCCCCUCGGUAAUGGCGAAUGGGACCCA [C13U G35A] here?
Return: label 1

Enquiry: Please report the category associated with GGCCGGCAUAGUCCCAGCCUCCUCGCUGGCGCCGGCUGGGCAACAUUCCGAGGGGACCGUCCCCUCGGUAAUGGCGAAUGGGAGCCA [G10A C84G] , nothing else.
Return: label 1

Enquiry: Band assignment needed for GGCCGGCAUGGUCCCAGCCUCCUCGCUGGCGCCGGCUGGGCAACACUCCGAGGGGACCGUCCCCUAGGUAAUGGCGAAUGGGACCCA [U46C C66A] please.
Return: label 2

Enquiry: Class for GGCCGGCAUGGUUCCAGCCUCCUCGCUGGCGCCGGCUGGCCAACAUUCCGAGGGGACCGUCCCCUCGGUAAUGGCGAAUGGGACCCA [C13U G40C] ?
Return: label 0

Enquiry: Which self-cleavage band matches GGCCGGCAUGGUGCCAGCCUCCUCGCUGGCGCCGGCUGGGCAACAUUCCGAGGGGACCUUCCCCUCGGUAAUGGCGAAUGGGACCCA [C13G G59U] ?
Return: label 0

Enquiry: Tag the class for GGCCGGCAUGGUGCCAGCCUCCUCGCUGGCGCCGGCUGGGCAACAUUCCGAGGGGACCGUCCCCUCGGUAUUGGCGAAUGGGACCCA [C13G A71U]
Return: label 0

Taken from the RNAGym collection of RNA variant scans (doi:10.7554/elife.80360).
